# TESTED_SYSTEM: Cyclin-dependent kinase 2/cyclin A (Homo sapiens)
# ASSAY_EXPLANATION: Inhibition of recombinant CDK2/Cyclin A using RbinG as substrate after 2 hrs by luminescence assay
pIC50: −log10 of the molar value.
ENDPOINT_LABEL: pIC50

COMPOUND | pIC50
COc1ccc2cc1COCC=CCCOc1cccc(c1)-c1ccnc(n1)N2 (mixture of isomers) | < 5.00
C1=CCOCc2cc(ccc2N2CCOCC2)Nc2nccc(n2)-c2cccc(c2)COC1 (mixture of isomers) | < 5.00

# next compound below
(Q) Look up and state reported pIC50 for CN1CCN(c2ccc3cc2COCC=CCOCc2cccc(c2)-c2ccnc(n2)N3)CC1 (mixture of isomers)
(A) < 5.00

====

# TESTED_SYSTEM: Receptor-type tyrosine-protein kinase FLT3 (Homo sapiens, UniProt P36888)
# ASSAY_EXPLANATION: Inhibition of recombinant FLT3 using Poly (Glu,Tyr) as substrate after 2 hrs by luminescence assay
Each record here notes measured pIC50.
FYI, pIC50 means -log10 of a concentration in mol per litre.

Use the examples below as a reference point.
COMPOUND | pIC50
C1=CCOc2cccc(c2)Nc2nccc(n2)-c2cccc(c2)OCC1 (mixture of isomers) | 6.06
Fc1cc2cc(c1)-c1ccnc(n1)Nc1ccc(OCCN3CCCC3)c(c1)COCC=CCOC2 (mixture of isomers) | 8.10
C1=CCCOc2cccc(c2)-c2ccnc(n2)Nc2cccc(c2)OCC1 | 5.96

(Q) Look up and state reported pIC50 for C1=CCOCc2cccc(c2)-c2ccnc(n2)Nc2cc(cc(OCCN3CCCC3)c2)COC1 (mixture of isomers)
(A) 7.66

(Q) Look up and state reported pIC50 for OCCN1CCN(c2ccc3cc2COCC=CCOCc2cccc(c2)-c2ccnc(n2)N3)CC1
(A) 7.15

(Q) Look up and state reported pIC50 for O=C1CCN(CCOc2ccc3cc2COCC=CCOCc2cccc(c2)-c2ccnc(n2)N3)C1 (mixture of isomers)
(A) 7.17

(Q) Look up and state reported pIC50 for COc1ccc2cc1-c1ccnc(n1)Nc1ccc(OCCN3CCCC3)c(c1)COCC=CCOC2
(A) 7.92

(Q) Look up and state reported pIC50 for Fc1ccc2cc1COCC=CCOCc1cc(ccc1OCCN1CCCC1)Nc1nccc-2n1 (mixture of isomers)
(A) 7.40

====

# TESTED_SYSTEM: Non-receptor tyrosine-protein kinase TYK2 (Homo sapiens, UniProt P29597)
# Sequence (P29597 whole entry): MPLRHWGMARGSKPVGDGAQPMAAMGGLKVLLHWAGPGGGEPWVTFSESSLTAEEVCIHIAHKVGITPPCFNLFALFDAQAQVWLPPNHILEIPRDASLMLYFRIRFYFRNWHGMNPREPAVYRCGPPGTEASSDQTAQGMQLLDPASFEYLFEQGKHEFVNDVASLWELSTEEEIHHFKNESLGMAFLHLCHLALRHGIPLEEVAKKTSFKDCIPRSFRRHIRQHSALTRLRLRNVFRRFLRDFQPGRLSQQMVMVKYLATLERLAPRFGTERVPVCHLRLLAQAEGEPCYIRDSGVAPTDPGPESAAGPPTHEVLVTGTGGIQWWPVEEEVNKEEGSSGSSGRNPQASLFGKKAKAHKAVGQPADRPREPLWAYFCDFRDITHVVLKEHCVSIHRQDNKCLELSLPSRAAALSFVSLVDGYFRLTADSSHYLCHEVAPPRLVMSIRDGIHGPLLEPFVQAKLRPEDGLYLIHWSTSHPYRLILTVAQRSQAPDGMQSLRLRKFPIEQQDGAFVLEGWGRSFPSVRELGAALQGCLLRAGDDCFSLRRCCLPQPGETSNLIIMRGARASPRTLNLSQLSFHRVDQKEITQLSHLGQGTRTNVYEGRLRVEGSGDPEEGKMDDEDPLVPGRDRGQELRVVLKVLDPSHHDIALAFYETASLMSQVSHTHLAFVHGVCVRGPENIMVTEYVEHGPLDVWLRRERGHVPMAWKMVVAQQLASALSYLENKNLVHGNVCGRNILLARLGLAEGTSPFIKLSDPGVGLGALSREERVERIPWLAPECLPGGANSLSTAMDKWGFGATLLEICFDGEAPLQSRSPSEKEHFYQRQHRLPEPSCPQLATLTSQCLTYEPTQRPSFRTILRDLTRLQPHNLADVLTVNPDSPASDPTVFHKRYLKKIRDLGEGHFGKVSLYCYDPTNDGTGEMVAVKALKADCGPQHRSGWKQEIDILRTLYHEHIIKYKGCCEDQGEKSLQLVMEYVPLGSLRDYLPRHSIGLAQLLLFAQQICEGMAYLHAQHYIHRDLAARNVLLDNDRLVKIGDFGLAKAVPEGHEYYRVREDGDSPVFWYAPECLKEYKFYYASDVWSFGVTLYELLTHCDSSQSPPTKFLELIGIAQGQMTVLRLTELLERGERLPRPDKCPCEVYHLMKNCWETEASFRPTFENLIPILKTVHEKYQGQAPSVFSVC
# ASSAY_EXPLANATION: Inhibition of recombinant TYK2
pIC50: −log10 of the molar value.
# pIC50 >= 7 gives MET, anything below gives NOT MET

These recorded examples may help you get a feel for the data.
MOLECULE | CLASS_LABEL
O=C1CCCN1CCOc1ccc2cc1COCC=CCOCc1cccc(c1)-c1ccnc(n1)N2 (mixture of isomers) | NOT MET
Oc1ccc2cc1COCC=CCOCc1cccc(c1)-c1ccnc(n1)N2 (mixture of isomers) | NOT MET

Kindly consider the entry below.
(Q) Test whether the molecule Cc1cnc2nc1-c1cccc(c1)COCC=CCOCc1cc(ccc1OCCN1CCCC1)N2 records pIC50 of 7 or higher.
(A) MET

====

# TESTED_SYSTEM: Receptor-type tyrosine-protein kinase FLT3 (Homo sapiens)
# Sequence (P36888 whole entry): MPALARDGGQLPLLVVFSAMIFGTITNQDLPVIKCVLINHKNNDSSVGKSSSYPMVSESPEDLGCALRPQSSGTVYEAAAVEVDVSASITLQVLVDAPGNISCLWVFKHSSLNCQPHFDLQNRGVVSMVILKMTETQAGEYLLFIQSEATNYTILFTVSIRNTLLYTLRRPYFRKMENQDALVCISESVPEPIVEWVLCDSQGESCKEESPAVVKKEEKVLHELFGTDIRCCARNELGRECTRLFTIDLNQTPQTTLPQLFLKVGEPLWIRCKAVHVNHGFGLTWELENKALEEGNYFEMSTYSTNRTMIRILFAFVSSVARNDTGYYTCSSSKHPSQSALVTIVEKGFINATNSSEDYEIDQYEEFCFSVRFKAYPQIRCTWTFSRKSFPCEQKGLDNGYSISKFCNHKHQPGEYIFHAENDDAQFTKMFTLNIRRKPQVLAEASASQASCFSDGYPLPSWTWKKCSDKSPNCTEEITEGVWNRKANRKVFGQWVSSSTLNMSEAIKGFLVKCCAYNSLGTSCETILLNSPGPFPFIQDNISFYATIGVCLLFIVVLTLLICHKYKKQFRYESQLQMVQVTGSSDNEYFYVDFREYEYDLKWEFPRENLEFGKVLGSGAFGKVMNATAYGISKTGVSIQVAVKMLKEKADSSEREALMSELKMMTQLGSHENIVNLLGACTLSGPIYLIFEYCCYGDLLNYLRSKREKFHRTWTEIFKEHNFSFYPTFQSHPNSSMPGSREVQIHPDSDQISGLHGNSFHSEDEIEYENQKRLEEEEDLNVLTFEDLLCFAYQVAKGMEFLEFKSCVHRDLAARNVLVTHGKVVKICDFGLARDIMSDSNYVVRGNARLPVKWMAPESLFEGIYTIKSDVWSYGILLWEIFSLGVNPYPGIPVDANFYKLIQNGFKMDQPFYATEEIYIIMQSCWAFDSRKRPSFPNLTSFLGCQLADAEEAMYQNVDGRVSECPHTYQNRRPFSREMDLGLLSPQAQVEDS
# ASSAY_EXPLANATION: Inhibition of recombinant FLT3 using Poly (Glu,Tyr) as substrate after 2 hrs by luminescence assay
Each record here notes measured pIC50.
FYI, pIC50 means -log10 of a concentration in mol per litre.

Use the examples below as a reference point.
COMPOUND | pIC50
CN1CCN(c2ccc3cc2COCC=CCOCc2cccc(c2)-c2ccnc(n2)N3)CC1 (mixture of isomers) | 7.52
CN(C)CCN(C)c1ccc2cc1COCC=CCOCc1cccc(c1)-c1ccnc(n1)N2 (mixture of isomers) | 7.51

# next compound below
(Q) Report pIC50 from Receptor-type tyrosine-protein kinase FLT3 (Homo sapiens) testing of COc1ccc2cc1COCC=CCCOc1cccc(c1)-c1ccnc(n1)N2 (mixture of isomers)
(A) 6.51

Values from ChEMBL document CHEMBL2176955
